target: UniProt P56817; test: Activity of recombinant BACE assessed as retention time of substrate by HPLC method
Sequence (P56817 whole entry): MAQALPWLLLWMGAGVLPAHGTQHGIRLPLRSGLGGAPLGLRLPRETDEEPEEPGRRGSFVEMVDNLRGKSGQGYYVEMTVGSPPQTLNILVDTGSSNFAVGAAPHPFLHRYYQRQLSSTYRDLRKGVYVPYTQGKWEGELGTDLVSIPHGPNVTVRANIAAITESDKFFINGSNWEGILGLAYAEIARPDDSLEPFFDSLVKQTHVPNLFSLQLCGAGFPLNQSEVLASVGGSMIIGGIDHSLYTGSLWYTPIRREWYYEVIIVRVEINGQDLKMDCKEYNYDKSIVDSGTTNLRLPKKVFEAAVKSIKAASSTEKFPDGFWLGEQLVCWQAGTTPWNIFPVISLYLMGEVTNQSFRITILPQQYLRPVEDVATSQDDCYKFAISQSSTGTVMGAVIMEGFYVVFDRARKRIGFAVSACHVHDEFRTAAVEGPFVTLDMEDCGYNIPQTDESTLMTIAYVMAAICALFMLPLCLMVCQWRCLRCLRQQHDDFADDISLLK
Starred links: 1 amine or outer side, 2 acyl side, 3 side chain; linkers in the order of their positions; H or OH if unused. Non-standard residues stand in square brackets, D forms with d. Residues, ends and D or L forms follow the SMILES beside them. X1 = O=C(O)[C@@H]1Cc2ccccc2CN1[C@H](N[*:1])C(=O)[*:2]; Nva = CCC[C@H](N)C(=O)O
# maps each entry to its retention time
Provide only the numeric value, understood in h.

INSERT INTO measurements (molecule, unit_tag, experimental_value) VALUES
  ('CC[C@H](C)[C@H](N)C(=O)N[C@@H](CO)C(=O)N[C@@H](CCC(=O)O)C(=O)N[C@H](C(=O)N[C@@H](CC(=O)O)C(=O)N[C@@H](CC(C)C)C(=O)N[C@@H](CC(=O)O)C(=O)N[C@@H](C)C(=O)N[C@@H](CCC(=O)O)C(=O)N[C@@H](Cc1ccccc1)C(=O)N[C@@H](CCCNC(=N)N)C(=O)N[C@@H](Cc1cnc[nH]1)C(N)=O)C(C)C (H-ISEVDLDAEFRH-NH2)', 'h', 0.49),
  ('CC[C@H](C)[C@H](N)C(=O)N[C@@H](CO)C(=O)N[C@@H](CCC(=O)O)C(=O)N[C@H](C(=O)N[C@@H](CC(N)=O)C(=O)N[C@H](C(=O)N[C@@H](CC(=O)O)C(=O)N[C@@H](C)C(=O)N[C@@H](CCC(=O)O)C(=O)N[C@@H](Cc1ccccc1)C(=O)N[C@@H](CCCNC(=N)N)C(=O)N[C@@H](Cc1cnc[nH]1)C(N)=O)N1Cc2ccccc2C[C@H]1C(=O)O)C(C)C (H-ISEVN[X1]DAEFRH-NH2)', 'h', 0.502);

// below: retention time requested for another molecule
# query: retention time | item CCC[C@H](NC(=O)[C@H](CCC(=O)O)NC(=O)[C@H](CO)NC(=O)[C@@H](N)[C@@H](C)CC)C(=O)N[C@@H](CC(N)=O)C(=O)N[C@@H](CC(C)C)C(=O)N[C@@H](CC(=O)O)C(=O)N[C@@H](C)C(=O)N[C@@H](CCC(=O)O)C(=O)N[C@@H](Cc1ccccc1)C(=O)N[C@@H](CCCNC(=N)N)C(=O)N[C@@H](Cc1cnc[nH]1)C(N)=O (H-ISE[Nva]NLDAEFRH-NH2) | system: UniProt P56817
0.496

Attribution: ChEMBL document CHEMBL1773037
